Tested on: 695427-040-R-J1-PDC complex spheroid viability;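 note: spheroids exposed to compounds for seven days; 100% = DMSO vehicle control viability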
Procedure summary: Anticancer human tumor 695427-040-R-J1-PDC patient-derived colon adenocarcinoma cell line growth inhibition [POLQ]
Setup conditions: second compound 0.316 µM; first compound 0.1 µM; stronger effect = lower value
Collected viability, T/C values appear next to each entry.

Compound: CC(C)n1c(=O)n(C)c2cnc3cc(F)c(-c4ccc(OCCCN5CCCCC5)nc4)cc3c21 + Nc1ccc(C#CCN(C(=O)Cc2ncc(C(F)(F)F)cc2C(F)(F)F)c2ccc(F)cc2)nn1
viability, T/C (%): 112

Compound: CC(C)n1c(=O)n(C)c2cnc3cc(F)c(-c4ccc(OCCCN5CCCCC5)nc4)cc3c21 + COC1C(OC(N)=O)C(O)C(Oc2ccc3c(O)c(NC(=O)c4ccc(O)c(CC=C(C)C)c4)c(=O)oc3c2C)OC1(C)C
viability, T/C (%): 103

Compound: CC[C@@]1(O)C(=O)OCc2c1cc1n(c2=O)Cc2cc3c(CN(C)C)c(O)ccc3nc2-1 + COC1C(OC(N)=O)C(O)C(Oc2ccc3c(O)c(NC(=O)c4ccc(O)c(CC=C(C)C)c4)c(=O)oc3c2C)OC1(C)C
viability, T/C (%): 92.4

Compound: C#Cc1c(F)ccc2cc(O)cc(-c3ncc4c(N5CC6CCC(C5)N6)nc(OCC56CCCN5CC(F)C6)nc4c3F)c12 (stereo not given) + Cc1cccc(N(C)C(=O)C2C(O)CCN2c2nc(C)cc(C(F)(F)F)c2C#N)c1
viability, T/C (%): 99

Compound: COc1cc2cc(C(=O)CCC(=O)O)sc2cc1OC + Nc1ccc(C#CCN(C(=O)Cc2ncc(C(F)(F)F)cc2C(F)(F)F)c2ccc(F)cc2)nn1
viability, T/C (%): 109

Compound: O=C(c1cc(Cc2n[nH]c(=O)c3ccccc23)ccc1F)N1CCN(C(=O)C2CC2)CC1 + Nc1ccc(C#CCN(C(=O)Cc2ncc(C(F)(F)F)cc2C(F)(F)F)c2ccc(F)cc2)nn1
viability, T/C (%): 102

Compound: Nc1ccn(C2OC(CO)C(O)C2(F)F)c(=O)n1 (stereo not given) + Cc1cccc(N(C)C(=O)C2C(O)CCN2c2nc(C)cc(C(F)(F)F)c2C#N)c1
viability, T/C (%): 87.8

Compound: CCc1cc2c(N3CCc4c(cc(Cn5ccnc5)cc4-c4cn(C)nc4C(F)(F)F)C3=O)cc(C)nc2c(OC)n1 + COC1C(OC(N)=O)C(O)C(Oc2ccc3c(O)c(NC(=O)c4ccc(O)c(CC=C(C)C)c4)c(=O)oc3c2C)OC1(C)C
viability, T/C (%): 112

Compound: CNCc1ccc(-c2[nH]c3cc(F)cc4c3c2CCNC4=O)cc1 + COC1C(OC(N)=O)C(O)C(Oc2ccc3c(O)c(NC(=O)c4ccc(O)c(CC=C(C)C)c4)c(=O)oc3c2C)OC1(C)C
viability, T/C (%): 99.8

Compound: Cn1ncnc1[C@H]1c2n[nH]c(=O)c3cc(F)cc(c23)N[C@@H]1c1ccc(F)cc1 + Nc1ccc(C#CCN(C(=O)Cc2ncc(C(F)(F)F)cc2C(F)(F)F)c2ccc(F)cc2)nn1
viability, T/C (%): 105
